experiment_description: Toxicity in transgenic zebrafish harboring Tg (zlyz:EGFP) preincubated for 2 hrs followed by CuSO4 treatment for 45 mins
Parameters: species or system Danio rerio
condition_details: in vivo, time 165 min
measured_endpoint: LC50 at 0.75 h

COc1ccc2[nH]c3c(O)cccc3c2c1Br 68 µM

Measured values drawn from ChEMBL document CHEMBL5584256 for this set.
